- PROCEDURE SUMMARY: yeast display, Sf9 membrane polyspecificity reagent, FACS + sequencing; frameworks hold sequencing errors
EXPERIMENTAL READOUT: polyreactivity (PSR sort gate)

Examples with their reported polyreactivity (PSR sort gate) follow.
INSERT INTO assay_data (record_sequence, experimental_readout, endpoint_value) VALUES
  ('QVQLVESGGGLVQAGGSLRLSCAASGSTFCYYDMGWYRQAPGKERELVATISSGGGTNYAASVKGRFTISRDNAKNTVYLQMNSLKPEDTAVYYCAAQYVIRITFYATYWEDYWGQGTQVTVSS', 'polyreactivity (PSR sort gate)', 'low polyreactivity'),
  ('QVQLVESGAGIVQAGGSLRLSCAASGLTFTYYAMGWYRQAPGKERELVAAISRSGTGTYYADSVKGRFTISRDNAKNTVYLQMNSLTAEDTAVYYCNAVVRTYGYDYWGQGTQVTVSS', 'polyreactivity (PSR sort gate)', 'high polyreactivity'),
  ('QVQLVESGGGLVQAGGSLRLSCAASGRIFNLYVMGWYRQAPGKERELVATISSGGSTNYADSVKGRFTISRDNAKNTVYLQMNSLKPEDTAVYYCAAREWRSFDYWGQGTQVTVSS', 'polyreactivity (PSR sort gate)', 'low polyreactivity'),
  ('QVQLVESGGGLVQAGGSLRLSCADSGSIFYYNAMGWYRQAPGKERELVAAISVSGGSTYYADSVKGRFTISRDNAKNTVYLQMNSLKPEDTAVYYCAAEWLYYYWLPGRADYLEYDYWGQGTQVTVSS', 'polyreactivity (PSR sort gate)', 'low polyreactivity'),
  ('QVQLVESGGGLVQAGGSHRLSCAASGSTRYYMGWYRQAPGKEREFVARITWSGTRTYYADSVKGRFTISRDNAKNTVYLQMNSLKPEDTAVYYCNAGVVWGQGTQVTVSS', 'polyreactivity (PSR sort gate)', 'high polyreactivity'),
  ('QVQLVESGGRLVQAGGSLRLSCAASGSIFTPYAMGCYIQAPGKERELVAAIRSVVRTNYADSVKGRFTISRDNAKNTVYLQLNSLNPEDTAVYYCATAVYPDFEYDSWGQGTQVTVSS', 'polyreactivity (PSR sort gate)', 'low polyreactivity'),
  ('QVQLVETGGGLVQAGGTLRLSCAPSGLIVDLYAMGCYRQAPGKERELVATISGSGGSTYYADSEKGRFTISRDNAKNTVYLQMNSLKPEDTAFYYCAAVSVSSWYDDCGQGTQVTVSS', 'polyreactivity (PSR sort gate)', 'low polyreactivity'),
  ('QVQLVESGGGLVQAGGSLRLSCAASGRILKRNAMGWYRQAPGKERELVAAISWSTGTTYYADSVKGRFTISRDNAKNTVYLQMNSLKPEDTAVYYCAKQIVSGRRVDRNDYWGQGTQVTVSS', 'polyreactivity (PSR sort gate)', 'low polyreactivity'),
  ('QVQLVESGGGLVQAGGSLRISCAASGLIFRHNAMGWYRQAPGKERELVAAITGSGSTYYADSEKGRFTISRDNAKNTVYLQMNSLKPEDTAVYYGNADYPGGLQEEDYWGQGTQVTVSS', 'polyreactivity (PSR sort gate)', 'low polyreactivity'),
  ('QVQLVESGGGLVQAGGSLRLSCAASGRIFRAYTMGWYRQAPGKERELVAAISGSGTSTYYADSVKGRFTISRDNAKNTVYLQMNSLKPEDTAVYYCAAPSLSGYGYEYWGQGTQVTVSS', 'polyreactivity (PSR sort gate)', 'high polyreactivity');

For "QDQLVESGGGLVQAGGSLRLSCAASGRTFAAYAMGWYRQAPGKERELVATIRRGGTTDYADSVKGRFTISRDNAKNTVYLQMNSLKPEDTAVYYCNARSRTYRTRRYDYWGQGTQVTVSS" the sequence record lists polyreactivity (PSR sort gate) as high polyreactivity
